Assay: Pharmacokinetic assay, intravenous 2 mg/kg, LC-MS/MS
Format: in vivo
Details: mouse, plasma, CD1 mice, read-out: Volume of distribution
Where a SMILES comes first, the peptide text is derived from it. [ ]: non-standard residue; d: D form. The star is where a group is joined. NH(4-amidinobenzyl) = N=C(N)c1ccc(CN*)cc1
PROPERTY: Vd (L)
Answers are plain numbers, in L.

Vd for CC(=O)N[C@H](CC(C)C)C(=O)N[C@@H](CC(C)C)C(=O)N[C@@H](CC(C)C)C(=O)N[C@@H](CC(C)C)C(=O)N[C@@H](CCCNC(=N)N)C(=O)N[C@H](C(=O)N[C@@H](CCCCN)C(=O)NCc1ccc(C(=N)N)cc1)C(C)C [Ac-[DLeu]LLLRVK-Amba] (Ac-[dL]LLLRVK-{NH(4-amidinobenzyl)}) is 0.006

---

Assay: LNCaP cell-based peptide stability assay
Type: in vitro ADME
Settings: human, LNCaP cells, HPLC, read-out: T½ LNCaP cells (converted)
Protocol: LNCaP cell-based stability assays were performed in Poly-(L)lysine coated 96-wells plates seeded at a density of 1,500 cells/wells. 100 μg of peptides were added 24 hours after plating without media change. […] For both in vitro and ex vivo stability assays, peptide stability was assessed from reverse phase HPLC and percentage of remaining peptide was calculated from area under curve and normalized to time 0.
PROPERTY: half-life (h)
Answers are plain numbers, in h.

half-life for Ac-LLLLRVKR-NH2 [Ac-LLLLRVKR-NH2] is 21

---

Experiment: Ex vivo plasmatic stability assay
Assay type: in vitro ADME
Conditions: both sexes, CD1; ex vivo mouse plasma; read-out: T½ plasma (converted)
Where a SMILES comes first, the peptide text is derived from it. [ ]: non-standard residue; d: D form. The star is where a group is joined. NH(4-amidinobenzyl) = N=C(N)c1ccc(CN*)cc1
PROPERTY: half-life at 0.5 μg/μL (min)
One number for each entry, in min.

half-life at 0.5 μg/μL for CC(=O)N[C@H](CC(C)C)C(=O)N[C@@H](CC(C)C)C(=O)N[C@@H](CC(C)C)C(=O)N[C@@H](CC(C)C)C(=O)N[C@@H](CCCNC(=N)N)C(=O)N[C@H](C(=O)N[C@@H](CCCCN)C(=O)NCc1ccc(C(=N)N)cc1)C(C)C [Ac-[DLeu]LLLRVK-Amba] (Ac-[dL]LLLRVK-{NH(4-amidinobenzyl)}) is 1080

---

Experiment: Pharmacokinetic assay, intravenous 2 mg/kg, LC-MS/MS
Type: in vivo
Settings: mouse, plasma, CD1 mice, read-out: Volume of distribution
PROPERTY: Vd (L)
Answers are plain numbers, in L.

Vd for Ac-LLLLRVKR-NH2 [Ac-LLLLRVKR-NH2] is 0.008

---

Assay: Pharmacokinetic assay, intravenous 2 mg/kg, LC-MS/MS
Format: in vivo
Settings: mouse, plasma, CD1 mice, read-out: Half-life (in vivo plasma)
Description: To determine pharmacokinetic profiles of peptides, a single dose of 2 mg/kg was administered into systemic circulation from tail vein of CD1 mice (n = 4 animal/peptide). Blood was micro sampled on individual mouse at time 2.5, 5, 10, 20, 30 and 60 minutes. […] Sample were analysed at PhenoSwitch Bioscience (Sherbrooke, Canada) by LC-MS/MS on a TripleTOF 5600 mass spectrometer (ABSciex, USA) equipped with DuoSpray source. […]
Where a SMILES comes first, the peptide text is derived from it. [ ]: non-standard residue; d: D form. The star is where a group is joined. NH(4-amidinobenzyl) = N=C(N)c1ccc(CN*)cc1
PROPERTY: half-life (min)
Numbers only, in min.

half-life for CC(=O)N[C@H](CC(C)C)C(=O)N[C@@H](CC(C)C)C(=O)N[C@@H](CC(C)C)C(=O)N[C@@H](CC(C)C)C(=O)N[C@@H](CCCNC(=N)N)C(=O)N[C@H](C(=O)N[C@@H](CCCCN)C(=O)NCc1ccc(C(=N)N)cc1)C(C)C [Ac-[DLeu]LLLRVK-Amba] (Ac-[dL]LLLRVK-{NH(4-amidinobenzyl)}) is 9
